Data credit: patent US20250152746A1

Documented Cyno Primary Hepatocyte Editing % 500 across a set of molecules
System: PCSK9 gene
test: PCSK9 gRNA/SpCas9 editing in primary cynomolgus hepatocytes (Tables 2, 22)
Assay type: cell-based, cynomolgus monkey
run conditions: 500 ng/RNA/mL; SpCas9 mRNA MS002 1:1 by weight
In the oligonucleotide strings, read from the 5' end, every base follows the letter of its sugar. An asterisk marks phosphorothioate; unmarked linkages are phosphodiester. Other units and linkages are bracketed, terminal groups are in braces. A string of capitals states the bases alone. m = 2'-O-methyl; r = 2'-OH (RNA)
Answer with the number, then the unit.

Cyno Primary Hepatocyte Editing % 500 for GA158: PCSK9 gRNA; protospacer GCTAGCCTTGCGTTCCGAGG (SEQ ID NO: 152) (nucleic acid) guide: mG*mC*mU*rArGrCrCrUrUrGrCrGrUrUrCrCrGrArGrGrGrUrUrUrUrArGrArGrCrUrArGrArArArUrArGrCrArArGrUrUrArArArArUrArArGrGrCrUrArGrUrCrCrGrUrUrArUrCrArArCrUrUrGrArArArArArGrUrGrGrCrArCrCrGrArGrUrCrGrGrUrGrCrU*mU*mU*mU ?
4.42%

Follow-up entry: GA237: PCSK9 gRNA; protospacer CAACGCCGCCTGCCAGCGCC (SEQ ID NO: 230) (nucleic acid, sugars from the 5' end m3 r94 m3, linkages s3 o93 s3 (s phosphorothioate, o phosphodiester), T or U not given here) guide: CAACGCCGCCUGCCAGCGCCGUUUUAGAGCUAGAAAUAGCAAGUUAAAAUAAGGCUAGUCCGUUAUCAACUUGAAAAAGUGGCACCGAGUCGGUGCUUUU
13.46%

***
Returns the measured Cyno Primary Hepatocyte Editing % 500 for the input molecule. Input: GA218: PCSK9 gRNA; protospacer CGCTGACCACCCCTGCCAGG (SEQ ID NO: 212) (nucleic acid, sugars from the 5' end m3 r94 m3, linkages s3 o93 s3 (s phosphorothioate, o phosphodiester), T or U not given here) guide: CGCUGACCACCCCUGCCAGGGUUUUAGAGCUAGAAAUAGCAAGUUAAAAUAAGGCUAGUCCGUUAUCAACUUGAAAAAGUGGCACCGAGUCGGUGCUUUU
19.95%
